Recorded values, source patent US20260209362A1.

- TARGET SYSTEM: T1, biotinylated recombinant mouse IL-12Rβ2 (mouse, UniProt P97378 24-637, random biotinylated)
- T1 construct: Recombinant protein produced in-house; also called mIL-12RB2; mouse IL-12RB2
- T1 sequence: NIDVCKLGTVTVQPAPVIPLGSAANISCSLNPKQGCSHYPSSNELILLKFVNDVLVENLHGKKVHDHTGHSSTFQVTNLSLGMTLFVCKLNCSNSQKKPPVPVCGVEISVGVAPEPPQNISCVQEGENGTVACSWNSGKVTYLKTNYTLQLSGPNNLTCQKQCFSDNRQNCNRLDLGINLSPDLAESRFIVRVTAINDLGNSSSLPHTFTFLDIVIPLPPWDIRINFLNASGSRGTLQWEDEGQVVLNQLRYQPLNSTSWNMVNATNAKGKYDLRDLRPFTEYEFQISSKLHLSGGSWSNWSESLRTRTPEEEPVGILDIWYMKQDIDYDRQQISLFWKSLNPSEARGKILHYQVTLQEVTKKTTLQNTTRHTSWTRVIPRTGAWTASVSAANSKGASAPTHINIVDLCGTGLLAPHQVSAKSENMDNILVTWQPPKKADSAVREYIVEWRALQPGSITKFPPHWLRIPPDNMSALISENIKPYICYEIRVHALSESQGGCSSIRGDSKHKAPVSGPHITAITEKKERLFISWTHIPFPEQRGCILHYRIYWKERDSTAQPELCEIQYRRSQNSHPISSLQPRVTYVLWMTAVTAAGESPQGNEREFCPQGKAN
- EXPERIMENT: ELISA, P.E., biotinylated antigen
Doc: threshold 1 (exclusive). Items with ELISA mIL-12RB2/control beneath it return Met; others return Not met.

// below: answered binders
**Query** hey, is ELISA mIL-12RB2/control for anti-IL-12Rβ2 VHH clone 3CRHS67 (clone ID 20424) (VHH, not shown: small tags and cut ends, periplasmic extract) VHH: QVQLQESGGGLVQAGGSLTLSCVSSQTLVGIEAMGWYRQAPGKQRELVALITLNGGTFYADSVKGRFTISRDVAEHMLYLEMNSLNPEDTAVYFCVAGVESDNEEPTYWGQGTQVTVSS lower than 1 or not?
**Result** Not met

**Query** hey, is ELISA mIL-12RB2/control for anti-IL-12Rβ2 VHH clone 3CRHS99 (clone ID 20427) (VHH, not shown: small tags and cut ends, periplasmic extract) VHH: QVQLQESGGGLVQPGGSLRLSCKASGFTFSTYAMSWVRQAPGKGLEWVSAINSGGLSTDYADSVEGRFTISRDDAKNMLFLQMNSLKAEDTARYYCAKYEDCSDYMCHRDRAGYWGQGTQVTVSS lower than 1 or not?
**Result** Met

**Query** hey, is ELISA mIL-12RB2/control for anti-IL-12Rβ2 VHH clone 3CRHS3 (clone ID 20414) (VHH, not shown: small tags and cut ends, periplasmic extract) VHH: QVQLQESGGGLVQPGGSLRLSCTASGSIFSIYNMDWYRQAPGNQREWVASITSSGDPYYDASVKGRFTISRDSAKMTVYLQMNSLKPEDTAVYYCKLPTEKGNYWGQGTQVTVSS lower than 1 or not?
**Result** Not met

**Query** hey, is ELISA mIL-12RB2/control for anti-IL-12Rβ2 VHH clone 2CRH60 (clone ID 20367) (VHH, not shown: small tags and cut ends, periplasmic extract) VHH: QVQLQESGGGSVQPGGSLRLTCAASGFTFSTSGMHWFRQAPGKGLEWVSSISSGGGDTYYTDSVKGRITISRDNAKNTLYLQLNDLKSEDTAVYYCSKDPSGATRGQGTQVTVSS lower than 1 or not?
**Result** Met

Now consider the entry below.
**Query** hey, is ELISA mIL-12RB2/control for anti-IL-12Rβ2 VHH clone 3CAHS41 (clone ID 20394) (VHH, not shown: small tags and cut ends, periplasmic extract) VHH: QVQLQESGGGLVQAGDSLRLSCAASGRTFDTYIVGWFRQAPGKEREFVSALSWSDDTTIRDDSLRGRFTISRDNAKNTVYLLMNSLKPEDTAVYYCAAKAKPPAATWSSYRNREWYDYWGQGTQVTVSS lower than 1 or not?
**Result** Not met
